system-tested: UniProt P0A705
Sequence (P0A705 whole entry): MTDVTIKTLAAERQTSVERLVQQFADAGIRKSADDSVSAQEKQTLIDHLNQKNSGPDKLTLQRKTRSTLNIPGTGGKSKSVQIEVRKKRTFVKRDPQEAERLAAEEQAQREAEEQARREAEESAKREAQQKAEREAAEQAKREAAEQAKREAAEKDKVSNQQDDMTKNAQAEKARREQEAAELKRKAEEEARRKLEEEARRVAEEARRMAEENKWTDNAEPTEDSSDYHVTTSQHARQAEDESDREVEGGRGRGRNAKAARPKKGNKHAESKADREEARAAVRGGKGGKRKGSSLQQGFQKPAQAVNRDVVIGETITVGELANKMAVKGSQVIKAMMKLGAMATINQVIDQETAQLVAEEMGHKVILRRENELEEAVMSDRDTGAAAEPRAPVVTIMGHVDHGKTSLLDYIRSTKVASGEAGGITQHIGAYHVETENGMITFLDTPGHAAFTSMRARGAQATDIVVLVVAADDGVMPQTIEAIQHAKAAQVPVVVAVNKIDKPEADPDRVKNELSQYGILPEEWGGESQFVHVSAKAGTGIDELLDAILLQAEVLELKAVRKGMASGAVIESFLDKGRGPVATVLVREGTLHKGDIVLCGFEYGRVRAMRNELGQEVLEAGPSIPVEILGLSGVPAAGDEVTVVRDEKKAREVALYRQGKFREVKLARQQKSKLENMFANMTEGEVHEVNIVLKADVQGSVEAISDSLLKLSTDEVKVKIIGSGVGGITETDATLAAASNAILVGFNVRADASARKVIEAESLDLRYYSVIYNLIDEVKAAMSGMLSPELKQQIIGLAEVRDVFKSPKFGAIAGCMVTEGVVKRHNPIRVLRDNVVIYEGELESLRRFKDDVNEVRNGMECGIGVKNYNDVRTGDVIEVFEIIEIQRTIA
experimental-readout: Kd (µM)

> print(dat)
                               input.smiles  experimental.readout  display.unit  measured
1  Nc1nc2c(ncn2[C@@H]2O[C@H](COP(=O)(O)OP(=O)(O)O)[C@@H](O)[C@H]2O)c(=O)[nH]1                    Kd            µM       1.6
2  Nc1nc2c(ncn2[C@@H]2O[C@H](COP(=O)(O)OP(=O)(O)OP(=O)(O)O)[C@@H](O)[C@H]2O)c(=O)[nH]1                    Kd            µM       6.7

====

system-tested: UniProt P0A6M8
Sequence (P0A6M8 2-704): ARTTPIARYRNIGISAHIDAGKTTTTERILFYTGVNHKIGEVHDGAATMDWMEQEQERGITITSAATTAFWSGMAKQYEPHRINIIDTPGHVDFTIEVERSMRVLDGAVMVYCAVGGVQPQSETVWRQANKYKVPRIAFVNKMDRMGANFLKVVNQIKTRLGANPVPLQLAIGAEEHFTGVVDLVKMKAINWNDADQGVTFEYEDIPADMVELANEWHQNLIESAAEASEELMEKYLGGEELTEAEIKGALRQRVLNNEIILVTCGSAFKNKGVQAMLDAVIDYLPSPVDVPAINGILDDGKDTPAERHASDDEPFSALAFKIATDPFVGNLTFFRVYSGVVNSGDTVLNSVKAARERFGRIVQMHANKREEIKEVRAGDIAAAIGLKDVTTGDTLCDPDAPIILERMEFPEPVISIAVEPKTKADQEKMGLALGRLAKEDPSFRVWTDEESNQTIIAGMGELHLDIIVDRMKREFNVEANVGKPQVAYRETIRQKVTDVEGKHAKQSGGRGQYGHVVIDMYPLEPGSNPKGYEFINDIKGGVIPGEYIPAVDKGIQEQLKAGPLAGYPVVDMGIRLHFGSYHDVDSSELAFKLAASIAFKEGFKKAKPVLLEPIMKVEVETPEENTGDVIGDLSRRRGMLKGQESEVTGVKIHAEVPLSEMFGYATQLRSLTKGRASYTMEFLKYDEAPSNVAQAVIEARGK
pKd: −log10 of the molar value.
Form field: pKd (one value per entry).
experimental-readout: pKd

> print(dat)
                                   compound  experimental.readout  measured
1  Nc1nc2c(ncn2[C@@H]2O[C@H](COP(=O)(O)OP(=O)(O)OP(=O)(O)O)[C@@H](O)[C@H]2O)c(=O)[nH]1 [GTP]                   pKd      5.57
2  Nc1nc2c(ncn2[C@@H]2O[C@H](COP(=O)(O)OP(=O)(O)O)[C@@H](O)[C@H]2O)c(=O)[nH]1 [GDP]                   pKd      5.74

These measurements were taken from paper PMC3496166.
